Please go through the items and note down their hERG current change (%, negative = inhibition) at 10uM.
target.of.assay: human ether-à-go-go-related gene (hERG) potassium channel (human, UniProt Q12809);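 note: peak tail current of the secondary pulse compared with the same well before compound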
Sequence (Q12809 whole entry, looked up): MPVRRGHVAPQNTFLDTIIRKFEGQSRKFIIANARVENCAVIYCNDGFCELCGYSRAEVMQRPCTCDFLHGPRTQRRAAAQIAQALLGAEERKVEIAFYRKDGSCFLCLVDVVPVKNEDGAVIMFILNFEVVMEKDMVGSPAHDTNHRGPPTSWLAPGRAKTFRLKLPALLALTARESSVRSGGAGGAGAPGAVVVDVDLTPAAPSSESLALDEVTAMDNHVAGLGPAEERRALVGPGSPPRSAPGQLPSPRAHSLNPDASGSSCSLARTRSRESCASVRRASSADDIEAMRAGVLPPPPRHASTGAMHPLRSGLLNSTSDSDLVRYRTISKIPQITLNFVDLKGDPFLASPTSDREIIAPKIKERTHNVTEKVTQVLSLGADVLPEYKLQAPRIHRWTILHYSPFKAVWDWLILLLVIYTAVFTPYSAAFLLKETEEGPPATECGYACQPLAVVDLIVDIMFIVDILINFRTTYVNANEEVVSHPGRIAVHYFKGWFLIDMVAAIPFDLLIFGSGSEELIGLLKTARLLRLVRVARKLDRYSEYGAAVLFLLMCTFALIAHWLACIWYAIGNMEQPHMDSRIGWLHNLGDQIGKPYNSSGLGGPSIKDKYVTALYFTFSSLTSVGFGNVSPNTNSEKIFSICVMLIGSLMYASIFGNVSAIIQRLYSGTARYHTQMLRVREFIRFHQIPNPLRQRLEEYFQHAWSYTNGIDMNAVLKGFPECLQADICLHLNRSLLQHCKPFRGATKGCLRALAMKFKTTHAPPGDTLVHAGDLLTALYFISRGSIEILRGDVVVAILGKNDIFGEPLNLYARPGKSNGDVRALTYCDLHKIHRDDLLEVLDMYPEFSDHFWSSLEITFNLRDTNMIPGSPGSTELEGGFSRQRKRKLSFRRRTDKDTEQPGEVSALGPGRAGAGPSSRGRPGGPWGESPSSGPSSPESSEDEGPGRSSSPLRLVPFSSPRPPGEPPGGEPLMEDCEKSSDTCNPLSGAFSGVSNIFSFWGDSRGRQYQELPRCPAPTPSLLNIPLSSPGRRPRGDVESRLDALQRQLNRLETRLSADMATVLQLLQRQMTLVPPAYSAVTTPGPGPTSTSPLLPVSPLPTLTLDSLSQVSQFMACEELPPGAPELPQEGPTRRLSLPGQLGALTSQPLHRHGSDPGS
experiment.summary: primary screen, population patch clamp on CHO cells stably expressing hERG; higher = less effect of the substance
Out of some 310,000 compounds screened, about 14,000 (4.5%) showed an effect of 50% or more. The effect is printed as a negative number. The entries come from a sample that favours strong results as a whole.
Numeric only. Scale: %

Prompt: Notebook entry, human ether-à-go-go-related gene (hERG) potassium channel (human, UniProt Q12809) assay: hERG current change (%, negative = inhibition) at 10uM of "Cn1c(O)c(N=Nc2ccc(S(=O)(=O)N3CCOCC3)cc2)c(=O)n(C)c1=O" = ?
Completion: 10.8

Prompt: Notebook entry, human ether-à-go-go-related gene (hERG) potassium channel (human, UniProt Q12809) assay: hERG current change (%, negative = inhibition) at 10uM of "CCCCOc1ccc(CSc2n[nH]c(C)n2)cc1" = ?
Completion: -1.41

Prompt: Notebook entry, human ether-à-go-go-related gene (hERG) potassium channel (human, UniProt Q12809) assay: hERG current change (%, negative = inhibition) at 10uM of "COc1ccc(S(=O)(=O)N/N=C(/C)c2ccco2)cc1" = ?
Completion: -6.76

Prompt: Notebook entry, human ether-à-go-go-related gene (hERG) potassium channel (human, UniProt Q12809) assay: hERG current change (%, negative = inhibition) at 10uM of "CCOC(=O)N1CCN(S(=O)(=O)c2ccc3c(c2)oc(=O)n3C)CC1" = ?
Completion: -0.295

Prompt: Notebook entry, human ether-à-go-go-related gene (hERG) potassium channel (human, UniProt Q12809) assay: hERG current change (%, negative = inhibition) at 10uM of "CCC(=O)n1nc(-c2ccccc2)nc1NCc1ccccc1" = ?
Completion: 10.9
